- measured-target: T1, human Angiopoietin-2 (human, UniProt O15123 19-496)
- T1 construct: Mostly bought recombinant protein (R&D Systems 623-AM/CF, 623-AN; biotinylated BT623) or supernatant of transfected 293F cells; also called Ang-2; rhAng-2
- T1 sequence: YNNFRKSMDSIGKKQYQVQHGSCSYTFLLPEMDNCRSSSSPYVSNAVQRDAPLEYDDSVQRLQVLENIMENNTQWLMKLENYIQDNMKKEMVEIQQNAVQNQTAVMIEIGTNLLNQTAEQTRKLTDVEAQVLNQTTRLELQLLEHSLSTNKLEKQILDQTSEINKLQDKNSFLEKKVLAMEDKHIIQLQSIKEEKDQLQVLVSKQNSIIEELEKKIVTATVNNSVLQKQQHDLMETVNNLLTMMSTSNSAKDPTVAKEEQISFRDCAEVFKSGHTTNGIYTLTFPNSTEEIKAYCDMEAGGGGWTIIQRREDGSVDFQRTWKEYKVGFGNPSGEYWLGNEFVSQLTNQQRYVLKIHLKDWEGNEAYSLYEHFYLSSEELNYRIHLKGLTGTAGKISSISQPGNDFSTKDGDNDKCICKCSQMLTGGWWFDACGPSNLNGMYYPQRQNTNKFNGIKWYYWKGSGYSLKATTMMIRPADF
- measurement-notes: Biacore, mAb captured
pKd: −log10 of the molar value.
Listed binders paired with reported pKd
experimental-endpoint: pKd

binder="mAb 5.108.1 (antibody, V domains shown, Human hybridoma IgG (XenoMouse); also called x5.108) VH: QVQLVESGGGVVQPGRSLRLSCAASGFTFSSYGMHWVRQAPGKGLEWVAVIWYDGSNKYYADSVKGRFTISRDNSKNTLYLQMNSLRAEDTAMYYCARELALWGQGTLVTVSS VL: EIVMTQSPATLSVSPGERATLSCRASQSVSSYLAWYQQKPGQAPRLLIYGAFTRATGIPARFRGSGSGPEFTLTISSLQSEDFAVYYCQQYSHWWTFGQGTKVEIKR" reported_result="≥ 10.51"
binder="mAb 5.39.1 (antibody, V domains shown, Human hybridoma IgG (XenoMouse); also called x5.39) VH: QVQLVQSGAEVTKPGASVKVSCKASGYTFTAYHMYWVRQAPGQGLEWMGWINPNSGGTNYAQKFQGRVTMTRDTSISTAYMELSRLRSDDSPVYYCARDQGIAAAGPFDYWGQGTLVTVSS VL: EIVMTQSPATLSVSPGDRATLSCRASQSVSSNFAWYQQKPGQAPRLLIYGSSTRATGIPARFSGSGSGTEFTLTISSLQSEDFAVYYCQQYHYWWTFGQGTKVEFKR" reported_result="≥ 10.37"
binder="mAb 5.56.1 (antibody, V domains shown, Human hybridoma IgG (XenoMouse); also called x5.56) VH: QVQLVESGGGVVQPGRSLRLSCAASGFTFSSYGMHWVRQAPGKGLEWVAVIWYDGSNKYYADSVKGRFTISRDNSKNTLYLQMNSLRAEDTAVYYCAREDNWNFYFDYWGQGTLVTVSS VL: DIQMTQSPSSLSASVGDRVTITCRASQGISYYLAWYQQKPGKVPKLLIYAASTLQSGVPSRFSGSGSGTDFTLTISSLQPEDVATYYCQKYNSAPFTFGPGTKVDIKR" reported_result="≥ 10.28"
